Molecular target: Recombinant human PDE5 (Homo sapiens, UniProt O76074)
Construct: purchased Sigma-Aldrich
Experiment: Inhibition of PDE5-mediated enzymatic breakdown of cGMP
Format: biochemical
Settings: 20 °C
Experimental readout: IC50 (µM)
# output: bare number, implied unit µM

(Q) I have this compound here, CC(=O)CCCCn1c(=O)c2c(ncn2C)n(C)c1=O [pentoxifylline] , and I need its recorded IC50.
(A) 39.4

====

Biological target: ABCC5 (Homo sapiens)
Construct: inside-out vesicles (IOV)s where erythrocytes from healthy, human donors were sampled; endogenous in cells; host or cells: inside-out vesicles from erythrocytes of healthy human donors
Sequence (O15440 whole entry): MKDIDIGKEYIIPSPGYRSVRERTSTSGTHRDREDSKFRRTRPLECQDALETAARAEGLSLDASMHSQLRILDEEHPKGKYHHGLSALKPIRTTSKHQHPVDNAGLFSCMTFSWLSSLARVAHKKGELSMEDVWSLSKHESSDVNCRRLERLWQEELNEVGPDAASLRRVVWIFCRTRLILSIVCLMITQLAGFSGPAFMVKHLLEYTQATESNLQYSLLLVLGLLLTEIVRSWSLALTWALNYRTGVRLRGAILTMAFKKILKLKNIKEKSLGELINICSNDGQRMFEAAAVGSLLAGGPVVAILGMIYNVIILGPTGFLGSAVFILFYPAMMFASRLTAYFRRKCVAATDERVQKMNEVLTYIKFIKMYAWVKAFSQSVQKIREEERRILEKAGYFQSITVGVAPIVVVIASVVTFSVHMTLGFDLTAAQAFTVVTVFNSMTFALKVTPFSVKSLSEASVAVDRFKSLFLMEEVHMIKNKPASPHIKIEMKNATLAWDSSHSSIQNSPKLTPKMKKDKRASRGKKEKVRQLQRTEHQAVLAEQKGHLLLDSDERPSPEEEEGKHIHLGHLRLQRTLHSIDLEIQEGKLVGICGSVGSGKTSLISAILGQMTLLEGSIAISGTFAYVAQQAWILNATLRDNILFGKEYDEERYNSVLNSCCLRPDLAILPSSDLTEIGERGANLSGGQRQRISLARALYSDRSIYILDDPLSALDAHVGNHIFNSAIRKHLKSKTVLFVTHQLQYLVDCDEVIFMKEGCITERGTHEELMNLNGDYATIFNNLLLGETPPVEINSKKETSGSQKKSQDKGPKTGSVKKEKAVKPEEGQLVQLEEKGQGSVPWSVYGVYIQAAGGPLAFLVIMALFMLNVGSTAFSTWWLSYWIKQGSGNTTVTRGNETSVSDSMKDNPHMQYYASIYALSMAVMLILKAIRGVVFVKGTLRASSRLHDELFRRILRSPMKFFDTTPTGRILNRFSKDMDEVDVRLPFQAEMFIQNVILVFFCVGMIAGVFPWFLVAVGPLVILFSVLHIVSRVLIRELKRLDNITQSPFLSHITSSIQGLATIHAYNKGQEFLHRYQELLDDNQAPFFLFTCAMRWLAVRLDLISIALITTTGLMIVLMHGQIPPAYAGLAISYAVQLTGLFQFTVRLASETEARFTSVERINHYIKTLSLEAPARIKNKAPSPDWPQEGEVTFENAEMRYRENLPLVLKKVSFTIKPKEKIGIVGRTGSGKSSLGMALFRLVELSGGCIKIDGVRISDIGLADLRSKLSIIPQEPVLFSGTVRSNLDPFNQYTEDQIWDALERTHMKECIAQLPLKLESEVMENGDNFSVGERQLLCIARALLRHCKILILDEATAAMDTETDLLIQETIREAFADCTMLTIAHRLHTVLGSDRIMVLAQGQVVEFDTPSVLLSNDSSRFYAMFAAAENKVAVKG
Experiment: Inhibition of [3H]-cGMP efflux in erythrocyte inside-out vesicles
Assay type: biochemical
Conditions: 34 °C; Cheng-Prusoff
Experimental readout: Ki (nM)
# output: bare number, implied unit nM

(Q) I have this compound here, CC(=O)CCCCn1c(=O)c2c(ncn2C)n(C)c1=O , and I need its recorded Ki.
(A) 505

====

Biological target: Recombinant human PDE5 (Homo sapiens, UniProt O76074)
Construct: purchased Sigma-Aldrich
Assay: Inhibition of PDE5-mediated enzymatic breakdown of cGMP
Assay type: biochemical
Conditions: 28 °C; Cheng-Prusoff
Experimental readout: Ki (µM)
# output: bare number, implied unit µM

(Q) I have this molecule here, CC(=O)CCCCn1c(=O)c2c(ncn2C)n(C)c1=O [pentoxifylline] , and I need its recorded Ki.
(A) 6.17

====

Target: ABCC4 (Homo sapiens, UniProt O15439)
Construct: inside-out vesicles (IOV)s where erythrocytes from healthy, human donors were sampled; endogenous in cells; host or cells: inside-out vesicles from erythrocytes of healthy human donors
Test: biochemical
Assay type: biochemical
Details: 32 °C; Cheng-Prusoff; read-out: Ki for inhibition of cAMP-efflux
Experimental: Cellular efflux was estimated with inside-out vesicles (IOV)s where erythrocytes from healthy, human donors were sampled. […] IOVs were then incubated with or without 2 mM ATP and 7 different concentrations of pentoxifylline increasing by a factor of 10 ranging from 1.00 nM to 1.00 mM. […] The dried membranes were later added scintillation fluid and radioactivity was measured using a Packard TopCount NXT (Packard, Downers Grove, IL, USA). […]
Experimental readout: Ki
Express the reported value numerically, then name its unit.

(Q) I have this compound here, CC(=O)CCCCn1c(=O)c2c(ncn2C)n(C)c1=O [pentoxifylline] , and I need its recorded Ki.
(A) 1160 nM

====

Target: ABCC5 (Homo sapiens)
Construct: inside-out vesicles (IOV)s where erythrocytes from healthy, human donors were sampled; endogenous in cells; host or cells: inside-out vesicles from erythrocytes of healthy human donors
Experiment: Inhibition of [3H]-cGMP efflux in erythrocyte inside-out vesicles
Type: biochemical
Conditions: 24 °C; Cheng-Prusoff
Experimental readout: pKi
// pKi is dimensionless: -log10 of concentration (M)

(Q) I have this compound here, CC(=O)CCCCn1c(=O)c2c(ncn2C)n(C)c1=O [pentoxifylline] , and I need its recorded pKi.
(A) 6.49

====

Molecular target: ABCC4 (Homo sapiens)
Construct: inside-out vesicles (IOV)s where erythrocytes from healthy, human donors were sampled; endogenous in cells; host or cells: inside-out vesicles from erythrocytes of healthy human donors
Sequence (O15439 1-1325): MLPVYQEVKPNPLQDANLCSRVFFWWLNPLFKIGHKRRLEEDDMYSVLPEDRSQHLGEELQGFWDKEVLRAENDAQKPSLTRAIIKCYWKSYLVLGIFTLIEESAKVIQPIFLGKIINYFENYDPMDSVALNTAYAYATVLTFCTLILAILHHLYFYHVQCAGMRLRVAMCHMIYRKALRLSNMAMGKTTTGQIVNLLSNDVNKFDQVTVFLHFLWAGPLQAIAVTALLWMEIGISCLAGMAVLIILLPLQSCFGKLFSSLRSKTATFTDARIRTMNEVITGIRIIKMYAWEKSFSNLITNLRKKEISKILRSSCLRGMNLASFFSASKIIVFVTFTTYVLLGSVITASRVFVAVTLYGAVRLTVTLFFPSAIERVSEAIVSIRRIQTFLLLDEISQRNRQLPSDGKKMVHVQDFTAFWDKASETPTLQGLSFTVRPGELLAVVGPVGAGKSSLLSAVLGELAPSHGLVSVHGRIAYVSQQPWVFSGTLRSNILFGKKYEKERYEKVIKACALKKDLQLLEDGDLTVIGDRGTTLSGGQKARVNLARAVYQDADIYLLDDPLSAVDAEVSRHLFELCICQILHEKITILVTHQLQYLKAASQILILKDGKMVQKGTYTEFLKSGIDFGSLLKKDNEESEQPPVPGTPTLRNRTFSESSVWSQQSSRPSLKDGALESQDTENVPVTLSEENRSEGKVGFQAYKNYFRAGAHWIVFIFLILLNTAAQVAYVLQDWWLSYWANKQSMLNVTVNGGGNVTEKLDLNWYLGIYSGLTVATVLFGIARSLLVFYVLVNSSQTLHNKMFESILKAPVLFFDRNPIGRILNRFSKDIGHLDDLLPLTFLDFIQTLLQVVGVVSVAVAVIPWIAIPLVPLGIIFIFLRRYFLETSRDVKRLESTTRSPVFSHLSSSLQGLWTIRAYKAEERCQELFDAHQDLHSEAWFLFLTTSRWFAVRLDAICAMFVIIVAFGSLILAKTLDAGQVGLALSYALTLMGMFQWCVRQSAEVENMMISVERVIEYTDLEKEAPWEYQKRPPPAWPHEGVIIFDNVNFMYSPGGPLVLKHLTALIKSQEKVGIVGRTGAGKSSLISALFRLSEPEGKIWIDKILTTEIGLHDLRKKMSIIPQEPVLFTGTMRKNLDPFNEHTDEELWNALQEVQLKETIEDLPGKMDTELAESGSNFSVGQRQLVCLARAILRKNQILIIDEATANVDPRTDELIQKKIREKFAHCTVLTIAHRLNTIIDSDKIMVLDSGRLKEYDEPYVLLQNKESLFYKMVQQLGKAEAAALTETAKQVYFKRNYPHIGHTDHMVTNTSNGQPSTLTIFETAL
Assay: biochemical
Assay type: biochemical
Details: 34 °C; Cheng-Prusoff; read-out: Ki for inhibition of cAMP-efflux
Experimental readout: pKi
// pKi is dimensionless: -log10 of concentration (M)

(Q) I have this molecule here, CC(=O)CCCCn1c(=O)c2c(ncn2C)n(C)c1=O [pentoxifylline] , and I need its recorded pKi.
(A) 5.69
